The values you see were collected from BindingDB's records for doi:10.1016/S0960-894X(00)80241-3.

assay: Inhibition of [14C]arachidonic acid conversion to 5-HETE by broken cell 5-lipoxygenase in vitro (guinea pig PMN)
parameter: IC50 (nM)

Answered cases to consult:
COC(=O)c1cccc2c1Nc1ccccc1O2: 770
CN(O)C(=O)c1ccc2c(c1)Nc1ccccc1O2: 87
COc1ccc2c(c1C(=O)NO)Nc1ccccc1O2: 420
CN(O)C(=O)/C=C/c1ccc2c(c1)Nc1ccccc1O2: 85

P. COC(=O)c1ccc2c(c1)Nc1ccccc1O2
Q. O=C(O)c1cccc2c1Nc1ccccc1O2 [10H-Phenoxazine-1-carboxylic acid]
-- ask Given the listed items, does P or Q have the lesser reported IC50? Mark your selection by writing its label.
-- reply P
(P: 65 nM, Q: 610 nM)
